Target: PI3Kβ (Homo sapiens)
Construct: made in house
Sequence (P42338 whole entry): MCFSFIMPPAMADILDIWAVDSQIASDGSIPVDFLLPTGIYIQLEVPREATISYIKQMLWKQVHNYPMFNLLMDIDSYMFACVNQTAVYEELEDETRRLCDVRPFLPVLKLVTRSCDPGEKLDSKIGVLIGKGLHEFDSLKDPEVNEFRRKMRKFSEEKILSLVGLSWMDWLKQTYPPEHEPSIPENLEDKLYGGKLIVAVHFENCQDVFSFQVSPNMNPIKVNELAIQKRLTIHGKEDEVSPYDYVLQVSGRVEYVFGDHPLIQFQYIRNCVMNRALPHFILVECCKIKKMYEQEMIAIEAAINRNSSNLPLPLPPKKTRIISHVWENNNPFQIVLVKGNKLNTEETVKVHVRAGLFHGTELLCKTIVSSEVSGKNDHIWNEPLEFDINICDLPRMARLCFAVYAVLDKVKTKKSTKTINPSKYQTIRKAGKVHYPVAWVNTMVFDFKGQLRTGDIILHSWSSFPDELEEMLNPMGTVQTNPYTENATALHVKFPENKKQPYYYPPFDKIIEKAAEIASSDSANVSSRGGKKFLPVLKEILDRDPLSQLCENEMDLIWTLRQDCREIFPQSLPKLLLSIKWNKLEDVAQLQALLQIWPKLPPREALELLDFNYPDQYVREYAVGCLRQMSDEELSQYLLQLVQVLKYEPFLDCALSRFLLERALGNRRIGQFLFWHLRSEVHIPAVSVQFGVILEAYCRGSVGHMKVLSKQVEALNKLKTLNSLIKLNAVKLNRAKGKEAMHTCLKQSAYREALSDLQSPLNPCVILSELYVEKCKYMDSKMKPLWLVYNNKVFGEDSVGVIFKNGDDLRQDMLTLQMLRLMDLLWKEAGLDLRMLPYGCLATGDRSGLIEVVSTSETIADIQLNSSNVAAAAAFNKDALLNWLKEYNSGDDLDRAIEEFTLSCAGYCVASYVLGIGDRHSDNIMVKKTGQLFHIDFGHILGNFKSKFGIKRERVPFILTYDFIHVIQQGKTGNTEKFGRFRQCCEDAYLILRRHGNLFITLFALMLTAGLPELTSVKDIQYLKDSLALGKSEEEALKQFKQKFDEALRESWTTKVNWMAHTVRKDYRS
Sequence (P27986 whole entry partner): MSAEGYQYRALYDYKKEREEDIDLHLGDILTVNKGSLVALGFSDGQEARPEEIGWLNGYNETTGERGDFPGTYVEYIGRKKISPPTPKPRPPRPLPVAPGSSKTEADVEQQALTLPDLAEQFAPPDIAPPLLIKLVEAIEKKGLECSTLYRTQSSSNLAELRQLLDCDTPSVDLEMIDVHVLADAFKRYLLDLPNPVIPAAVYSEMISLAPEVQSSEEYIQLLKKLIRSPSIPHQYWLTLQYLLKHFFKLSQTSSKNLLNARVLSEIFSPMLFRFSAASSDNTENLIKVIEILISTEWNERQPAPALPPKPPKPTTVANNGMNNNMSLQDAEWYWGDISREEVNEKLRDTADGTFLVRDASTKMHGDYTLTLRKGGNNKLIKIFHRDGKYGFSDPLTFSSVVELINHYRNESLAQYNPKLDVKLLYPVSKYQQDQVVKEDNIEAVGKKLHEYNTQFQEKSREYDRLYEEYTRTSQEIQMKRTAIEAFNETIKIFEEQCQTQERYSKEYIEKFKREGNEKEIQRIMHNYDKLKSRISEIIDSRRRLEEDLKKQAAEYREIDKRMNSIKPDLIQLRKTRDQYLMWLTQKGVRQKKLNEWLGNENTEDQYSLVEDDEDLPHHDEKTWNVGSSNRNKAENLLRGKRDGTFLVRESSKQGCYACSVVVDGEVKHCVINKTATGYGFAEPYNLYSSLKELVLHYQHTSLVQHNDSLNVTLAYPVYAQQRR
Assay: TR-FRET enzymatic activity assay, PI3Kβ
Assay type: biochemical
Conditions: Table 2a; same assay
pIC50: −log10 of the molar value.
Threshold check on pIC50: at or above 8 gives yes (1), strictly below gives no (0).

# count of solved cases: 3
C[C@H](Nc1ncnc2scc(C#N)c12)c1nc2cccc(Cl)c2c(=O)n1-c1cc[nH]n1 [Compound 202]	no (0)
C[C@@H](Nc1nc(N)nc(N)c1Cl)c1nc2cccc(C(F)F)c2c(=O)n1-c1cc[nH]n1 [Compound 181]	no (0)
C[C@H](Nc1nc(N)nc(N)c1Cl)c1nc2c(C(F)F)cccc2c(=O)n1-c1cc[nH]n1 [Compound 200]	no (0)

*Q* Item N#Cc1c(N[C@H](c2nc3c(F)cc(F)cc3c(=O)n2-c2cc[nH]n2)C2CC2)nc(N)nc1C(F)F [Compound 195] with pIC50 of 8 or above?
*A* no (0)

*Q* Item C[C@H](Nc1nc(N)nc(N)c1C#N)c1nc2c(Cl)cc(F)cc2c(=O)n1-c1c[nH]cn1 [Compound 285] with pIC50 of 8 or above?
*A* yes (1)

---

Biological target: PI3Kβ (Homo sapiens)
Construct: made in house
Assay: TR-FRET enzymatic activity assay, PI3Kβ
Assay type: biochemical
Details: Table 2; TR-FRET, 2x Km ATP, 30 minutes at 25° C.
The entries below come with measured IC50 values attached.
The response must be a number in nM with no trailing unit.

Worked examples follow.
CC[C@H](Nc1nc(N)nc(N)c1C#N)c1nc2cccc(C#N)c2c(=O)n1-c1cc[nH]n1	17
O=c1c2c(Cl)ccc(Cl)c2nc([C@@H](Nc2ncnc3scnc23)C2CC2)n1-c1cn[nH]c1	9

Next, consider the following compound.
*Q* Please look up its IC50: CC[C@H](Nc1nc(N)nc(N)c1C#N)c1nc2ccc(F)cc2c(=O)n1-c1cc[nH]n1
*A* 17

---

The entries below come with measured IC50 values attached.
Molecular target: PI3Kδ (Homo sapiens, UniProt O00329)
Construct: made in house
Sequence (O00329 whole entry): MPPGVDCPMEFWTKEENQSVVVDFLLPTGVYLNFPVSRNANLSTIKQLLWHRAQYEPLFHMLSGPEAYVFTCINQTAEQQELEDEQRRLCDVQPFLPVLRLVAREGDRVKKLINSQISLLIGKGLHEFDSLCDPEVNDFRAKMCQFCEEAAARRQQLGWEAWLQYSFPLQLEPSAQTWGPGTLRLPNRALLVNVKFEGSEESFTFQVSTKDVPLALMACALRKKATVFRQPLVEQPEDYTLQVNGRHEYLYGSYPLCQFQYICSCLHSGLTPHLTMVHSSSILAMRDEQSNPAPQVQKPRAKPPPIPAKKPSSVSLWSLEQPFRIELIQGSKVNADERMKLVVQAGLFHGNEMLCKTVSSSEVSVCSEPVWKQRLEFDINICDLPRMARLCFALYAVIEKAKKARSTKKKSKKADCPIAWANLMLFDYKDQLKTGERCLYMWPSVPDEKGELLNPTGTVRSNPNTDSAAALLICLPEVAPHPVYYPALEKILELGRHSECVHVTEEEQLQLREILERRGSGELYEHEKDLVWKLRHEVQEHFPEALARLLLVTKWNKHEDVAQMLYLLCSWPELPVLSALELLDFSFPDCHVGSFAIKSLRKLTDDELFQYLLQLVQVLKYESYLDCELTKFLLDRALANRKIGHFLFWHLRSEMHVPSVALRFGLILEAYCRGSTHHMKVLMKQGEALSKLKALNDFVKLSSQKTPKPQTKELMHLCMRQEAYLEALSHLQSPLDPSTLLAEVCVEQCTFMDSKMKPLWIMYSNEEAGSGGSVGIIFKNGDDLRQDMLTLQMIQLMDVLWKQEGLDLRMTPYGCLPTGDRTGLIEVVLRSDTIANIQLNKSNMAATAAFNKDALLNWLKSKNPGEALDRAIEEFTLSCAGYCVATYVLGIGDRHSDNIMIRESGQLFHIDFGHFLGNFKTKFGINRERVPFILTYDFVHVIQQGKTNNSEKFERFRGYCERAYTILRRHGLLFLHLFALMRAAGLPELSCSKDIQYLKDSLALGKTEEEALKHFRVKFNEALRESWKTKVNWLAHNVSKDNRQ
Sequence (P27986 whole entry partner): as the sequence (P27986 whole entry partner) above
Assay: TR-FRET enzymatic activity assay, PI3Kδ
Assay type: biochemical
Conditions: Table 2a; same assay

Worked examples follow.
C[C@H](Nc1nc(N)nc(N)c1C#N)c1nc2c(F)c(F)ccc2c(=O)n1-c1cc[nH]n1	12 nM
C[C@H](Nc1nc(N)nc(N)c1Cl)c1nc2c(Cl)cccc2c(=O)n1-c1cc[nH]n1	9 nM

Next, consider the following molecule.
*Q* Please look up its IC50: Cc1c[nH]nc1-n1c([C@@H](Nc2nc(N)nc(N)c2C#N)C2CC2)nc2c(C#N)cccc2c1=O
*A* 7 nM

---

The entries below come with measured pIC50 values attached.
Target: PI3Kδ (Homo sapiens)
Construct: made in house
Assay: TR-FRET enzymatic activity assay, PI3Kδ
Assay type: biochemical
Conditions: Table 2; TR-FRET, 2x Km ATP, 30 minutes at 25° C.
By convention, pIC50 is the negative base-10 log of a molar concentration.

Worked examples follow.
CC[C@H](Nc1nc(N)nc(N)c1C#N)c1nc2c(C)ccc(F)c2c(=O)n1-c1cc[nH]n1	8.30
CC[C@H](Nc1ncnc2scnc12)c1nc2cccc(C#N)c2c(=O)n1-c1cc[nH]n1	7.74
C[C@H](Nc1nc(N)nc2[nH]nc(Br)c12)c1nc2cccc(Cl)c2c(=O)n1-c1cc[nH]n1	8.22
C[C@H](Nc1ncnc2scnc12)c1nc2c(Cl)ccc(Cl)c2c(=O)n1-c1n[nH]cc1Br	8.40
Cc1c[nH]nc1-n1c([C@H](C)Nc2ncnc(N)c2C#N)nc2cccc(Cl)c2c1=O	8.70

*Q* Please look up its pIC50: O=c1c2c(Cl)cccc2nc([C@H](CO)Nc2ncnc3scnc23)n1-c1cn[nH]c1
*A* 8.15

*Q* Please look up its pIC50: CC[C@H](Nc1ncnc2scnc12)c1nc2c(C#N)cccc2c(=O)n1-c1cc[nH]n1
*A* 8.30

*Q* Please look up its pIC50: Nc1nc(N)c(Cl)c(N[C@H](c2nc3cccc(F)c3c(=O)n2-c2cc[nH]n2)C2CC2)n1
*A* 7.55

*Q* Please look up its pIC50: N#Cc1c(N)nc(N)nc1N[C@H](c1nc2c(Cl)ccc(Cl)c2c(=O)n1-c1cc[nH]n1)C1CC1
*A* 9.00

*Q* Please look up its pIC50: CCC[C@H](Nc1nc(N)nc(N)c1Cl)c1nc2cccc(Cl)c2c(=O)n1-c1cc[nH]n1
*A* 7.92

*Q* Please look up its pIC50: N#Cc1c(N)nc(N)nc1N[C@@H](c1ccccc1)c1nc2cccc(Cl)c2c(=O)n1-c1cn[nH]c1
*A* 8.70

*Q* Please look up its pIC50: N#Cc1c(N)nc(N)nc1N[C@@H](c1ccccc1)c1nc2cccc(Cl)c2c(=O)n1-c1cc[nH]n1
*A* 8.52

Cited source: patent US10308639B2
